B1: INTS3 (parent)
chain: DLNSKGKKREFRFHPIKETVVEEP

- Variants of: B1
- experimental-details: protein stability index of a GFP-peptide fusion (GPS, HEK-293T) (PSI 1-6); higher = more stable;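 also: lentivirally expressed fusions sorted by FACS into six bins by GFP to DsRed ratio, PSI derived from sequencing read proportions per bin multiplied by bin number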
- condition-info: c terminus: a fixed tail appended
Everything with protein stability index lower than 2 is class 0; everything else, including exactly 2, is class 1.

Reported protein stability index reaches at least 2 for D1C ?
class 1

Reported protein stability index reaches at least 2 for R12N ?
class 1

Reported protein stability index reaches at least 2 for E23W ?
class 0

Reported protein stability index reaches at least 2 for V21N ?
class 1

Reported protein stability index reaches at least 2 for N3L ?
class 1

Reported protein stability index reaches at least 2 for F11H ?
class 1

Reported protein stability index reaches at least 2 for T19N ?
class 1

Reported protein stability index reaches at least 2 for I16M ?
class 1

Reported protein stability index reaches at least 2 for K5S ?
class 1

Reported protein stability index reaches at least 2 for N3I ?
class 0

Reported protein stability index reaches at least 2 for E18A ?
class 1

Sourced from the supplement of paper PMC10567573
